SUBJECT_OF_TEST: T1, human CCR8 (human, UniProt P51685 1-355)
T1 construct: Native CCR8 on human PBMC (CCR8+ CD3+ or CCR8+ CD4+ lymphocytes); also called chemokine (C-C motif) receptor 8
TEST_NAME: flow blocking, PBMC CCR8+CD4+; competitor PE-AB11
# % Positive cells values compiled below
Answer format reminder: number followed by unit.

Known results for binders:
BINDER: AB4 (antibody, V domains shown, Hybridoma monoclonal; also called antibody 4; clone 4) VH: QVQLKESGPGLVKPSETLSLTCTVSGFSLTGYHVSWVRQPPGKGLEWMGVIWGDGRTTYNSALKSRLSISRDTSKSQVFLKMSSLKTEDTATYYCARGGDSGFAYWGQGTLVTVSS VL: DIQMTQSPASLSASLEEIVTITCQASQDIGNWLSWYQQKPGKSPQLLIYGATSLADGVPSRFSGSRSGTQFSLKISRLQVEDIGIYYCLQAYIVPLTFGSGTKLESK
OBSERVED: 1.87%

BINDER: AB14 (antibody, V domains shown, Hybridoma monoclonal; Same VH/VL entries as AB15; also called antibody 14; clone 14) VH: EVQLVESGGGLVQPKGSLKLSCAASGFTFNTYAMNWVRQAPGKGLEWVARIRSKSNNYATYYVDSVKDRFTISRDDSQSMLYLQINNLKTEDTAMYYCVRGRELGPYSAMDYWGQGTSVTVSS VL: DIVMTQAAPSVPVTPGESVSISCRSSKSLLHSNGNTYLYWFLQRPGQSPQLLIYRMSNLASGVPDRFSGSGSGTAFTLRISRVEAEDVGLYYCMQHLEYPFTFGGGTKLEIK
OBSERVED: 0.03%

IN: Answer with the recorded % Positive cells of AB8 (antibody, V domains shown, Hybridoma monoclonal; also called antibody 8; clone 8) VH: AVQLVESGGGLVQPKESLKISCAASGFIFSNAAMYWVRQAPGKGLQWVARIRTKPKNYATYYIDSVKGRFTISRDDSKSMVYLQMDNLKTEDTAMYYCNTMGLTRAYYFDYWGQGVMVTVSS VL: DIQMTQSPSFLSASVGDRVTINCKASQNINRYLNWYQQKLGEAPKLLIYNANSLQTGIPSRFSGSGSGTDFTLTIRSLQPEDVATYFCLQHNSWPWTFGGGTKLELK only.
OUT: 0.03%
